- assayInfo: Oral bioavailability in Swiss CD1 mouse at 10 mg/kg
- experimentalConditions: in vivo
measuredQuantity: bioavailability (%)

[[record]]
smilesstr = "CS(=O)(=O)NCCCn1c(C(=O)N2CCC(C(N)=O)(N3CCC(F)(F)CC3)CC2)cc(-c2ccc(Cl)cc2Cl)c1-c1ccc(Cl)cc1"
measuredquantity = "bioavailability"
observedvalue = 37


* * *

- experimentalTarget: Cannabinoid receptor 1 (Rattus norvegicus, UniProt P20272)
- Sequence (P20272 whole entry): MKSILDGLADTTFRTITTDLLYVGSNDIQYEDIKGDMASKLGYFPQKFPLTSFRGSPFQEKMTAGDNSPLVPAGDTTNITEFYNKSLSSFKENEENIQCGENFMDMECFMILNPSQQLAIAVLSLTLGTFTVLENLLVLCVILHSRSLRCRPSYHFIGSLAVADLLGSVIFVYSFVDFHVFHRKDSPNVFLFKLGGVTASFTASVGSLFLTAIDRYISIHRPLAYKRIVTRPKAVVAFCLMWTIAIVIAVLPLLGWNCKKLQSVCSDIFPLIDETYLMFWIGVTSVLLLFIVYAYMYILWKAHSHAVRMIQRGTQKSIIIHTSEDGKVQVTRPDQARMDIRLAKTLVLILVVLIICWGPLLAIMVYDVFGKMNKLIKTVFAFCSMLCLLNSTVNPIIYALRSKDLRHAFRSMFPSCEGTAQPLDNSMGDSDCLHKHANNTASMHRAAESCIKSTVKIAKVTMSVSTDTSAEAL
- assayInfo: Binding affinity to CB1 receptor in rat brain synaptosomal membranes
pIC50: −log10 of the molar value.
Each entry below lists one item and its recorded pIC50 value.
measuredQuantity: pIC50

[[record]]
smilesstr = "Cn1c(C(=O)N2CCC(C(N)=O)(N3CCCCC3)CC2)cc(-c2ccc(Cl)cc2Cl)c1-c1ccc(Cl)cc1"
measuredquantity = "pIC50"
observedvalue = 9.70

[[record]]
smilesstr = "NC(=O)C1(N2CCCCC2)CCN(C(=O)c2cc(-c3ccc(Cl)cc3Cl)c(-c3ccc(Cl)cc3)n2CCC(=O)O)CC1"
measuredquantity = "pIC50"
observedvalue = 6.74

[[record]]
smilesstr = "CS(=O)(=O)NCCCn1c(C(=O)N2CCC(C(N)=O)(N3CCC(F)(F)CC3)CC2)cc(-c2ccc(Cl)cc2Cl)c1-c1ccc(Cl)cc1"
measuredquantity = "pIC50"
observedvalue = 9.00

[[record]]
smilesstr = "CC(C)(CCCn1c(C(=O)N2CCC(C(N)=O)(N3CCCCC3)CC2)cc(-c2ccc(Cl)cc2Cl)c1-c1ccc(Cl)cc1)C(=O)O"
measuredquantity = "pIC50"
observedvalue = 6.80

[[record]]
smilesstr = "N#CCCn1c(C(=O)N2CCC(C(N)=O)(N3CCCCC3)CC2)cc(-c2ccc(Cl)cc2Cl)c1-c1ccc(Cl)cc1"
measuredquantity = "pIC50"
observedvalue = 8.10

[[record]]
smilesstr = "CS(=O)(=O)CCn1c(C(=O)N2CCC(C(N)=O)(N3CCCCC3)CC2)cc(-c2ccc(Cl)cc2Cl)c1-c1ccc(Cl)cc1"
measuredquantity = "pIC50"
observedvalue = 9.40

